Task for the reader: assign each of the following binders its reported Bmax.
- ASSAYED_SYSTEM: T1, A Proliferation Inducing Ligand (APRIL) (human, UniProt O75888 105-250)
- T1 sequence: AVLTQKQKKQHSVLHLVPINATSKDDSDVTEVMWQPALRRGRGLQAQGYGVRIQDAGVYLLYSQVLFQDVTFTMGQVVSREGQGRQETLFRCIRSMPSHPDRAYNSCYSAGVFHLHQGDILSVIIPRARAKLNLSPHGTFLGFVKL
- PROTOCOL_NOTES: cell binding titration by flow cytometry; soluble APRIL varied to 10 nM on cells displaying the BCMA clone
State the answer as a number, implicitly in A.U..

According to the records, this binder BCMA#106 (receptor, also called Clone #106; clones #106-111) variant BCMA extracellular domain: VSQTAGQCSQNEYFDGLLHACIPCQLRCSSDIPPLACQRYCNASVTNSVKGTNA displays Bmax of 7910

According to the records, this binder BCMA#73 (receptor, also called Clone #73; clone #22) variant BCMA extracellular domain: MLQMAGQCSQNEYFDGLLHACIPCQLRCSSNTPPLACQRYCNASVTNSVKGTNA displays Bmax of 5530

According to the records, this binder BCMA#72 (receptor, also called Clone #72; sBCMA variant clone 72) variant BCMA extracellular domain: MLQMAGQCSQNEYFDGLLYACIPCQLRCSSNTPPLACQRYCNASVTNSVKGTNA displays Bmax of 5860

According to the records, this binder BCMA#75 (receptor, also called Clone #75; clones #49, 75-94) variant BCMA extracellular domain: MLPMAGQCPQNEYFDSLLYACIPCQLRCSSSTPPLACQHYCNASVTRSVEGTNA displays Bmax of 7060

According to the records, this binder BCMA#95 (receptor, also called Clone #95) variant BCMA extracellular domain: VSQTAGQCSQDEYFDSLLYACIPCQLRCSSNTPPLACQRYCNASVTNSVKGTNA displays Bmax of 7230

According to the records, this binder BCMA#71 (receptor, also called Clone #71; sBCMA variant clone 71) variant BCMA extracellular domain: MLQMAGQCSQNEYFDGLLYACIPCQLRCSSNTPPLACQRYCNASVTNSVKGTDA displays Bmax of 8270

According to the records, this binder BCMA#74 (receptor, also called Clone #74; sBCMA variant clone 74) variant BCMA extracellular domain: MLQMAGQCPQDEYFDGLLYACIPCQLRCSSNTPPLACQRYCNASVTSSVKGTDA displays Bmax of 9200
